# experimental.target: NK1 (Homo sapiens)
# Sequence (P25103 whole entry): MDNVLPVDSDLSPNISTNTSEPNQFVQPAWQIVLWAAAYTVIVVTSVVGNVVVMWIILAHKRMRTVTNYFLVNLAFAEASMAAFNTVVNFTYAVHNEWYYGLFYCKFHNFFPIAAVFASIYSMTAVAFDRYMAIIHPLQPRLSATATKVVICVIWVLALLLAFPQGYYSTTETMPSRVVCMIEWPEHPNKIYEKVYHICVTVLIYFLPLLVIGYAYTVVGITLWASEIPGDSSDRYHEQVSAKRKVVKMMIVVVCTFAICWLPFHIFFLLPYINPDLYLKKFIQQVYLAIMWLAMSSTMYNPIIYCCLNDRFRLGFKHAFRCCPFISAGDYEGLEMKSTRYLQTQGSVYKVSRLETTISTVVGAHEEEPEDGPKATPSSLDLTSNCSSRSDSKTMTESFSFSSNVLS
# assay.protocol: Signal transduction (ST), intracellular Ca++ (FLIPR), NK1 antagonistic activity
# Format: cell-based
# run.parameters: read-out: pIC50 NK1 (converted)
quantity.kind: IC50 (nM)
Form entry: value (nM) — number only.

compound: O=C(C1CCNCC1)N1CCC(N2CCN(C3CCN(C(=O)c4cc(C(F)(F)F)cc(C(F)(F)F)c4)C(Cc4ccccc4)C3)CC2)C1 (stereo not shown)
quantity.kind: IC50
test.value: 31.6

compound: CN(C)C(=O)N1CCC(N2CCN([C@H]3CCN(C(=O)c4cc(C(F)(F)F)cc(C(F)(F)F)c4)[C@H](Cc4ccccc4)C3)CC2)C1 (stereo partly shown)
quantity.kind: IC50
test.value: 12.6

compound: CC(C)NC(=O)N1CCC(N2CCN([C@H]3CCN(C(=O)c4cc(C(F)(F)F)cc(C(F)(F)F)c4)[C@H](Cc4ccccc4)C3)CC2)C1 (stereo partly shown)
quantity.kind: IC50
test.value: 15.8

Task item: If you can, please state the reported IC50 value of O=C(c1cc(C(F)(F)F)cc(C(F)(F)F)c1)N1CC[C@H](N2CCN(C3CCN(S(=O)(=O)c4ccccc4O)C3)CC2)C[C@H]1Cc1ccccc1 (stereo partly shown) .
Reply: 15.8
